Origin of measurements: the kinase profiling compilation of Christmann-Franck et al. (2016)

Listed next: entries and their corresponding residual activity.
Biological target: UniProt Q04912
Sequence (Q04912 whole entry, looked up): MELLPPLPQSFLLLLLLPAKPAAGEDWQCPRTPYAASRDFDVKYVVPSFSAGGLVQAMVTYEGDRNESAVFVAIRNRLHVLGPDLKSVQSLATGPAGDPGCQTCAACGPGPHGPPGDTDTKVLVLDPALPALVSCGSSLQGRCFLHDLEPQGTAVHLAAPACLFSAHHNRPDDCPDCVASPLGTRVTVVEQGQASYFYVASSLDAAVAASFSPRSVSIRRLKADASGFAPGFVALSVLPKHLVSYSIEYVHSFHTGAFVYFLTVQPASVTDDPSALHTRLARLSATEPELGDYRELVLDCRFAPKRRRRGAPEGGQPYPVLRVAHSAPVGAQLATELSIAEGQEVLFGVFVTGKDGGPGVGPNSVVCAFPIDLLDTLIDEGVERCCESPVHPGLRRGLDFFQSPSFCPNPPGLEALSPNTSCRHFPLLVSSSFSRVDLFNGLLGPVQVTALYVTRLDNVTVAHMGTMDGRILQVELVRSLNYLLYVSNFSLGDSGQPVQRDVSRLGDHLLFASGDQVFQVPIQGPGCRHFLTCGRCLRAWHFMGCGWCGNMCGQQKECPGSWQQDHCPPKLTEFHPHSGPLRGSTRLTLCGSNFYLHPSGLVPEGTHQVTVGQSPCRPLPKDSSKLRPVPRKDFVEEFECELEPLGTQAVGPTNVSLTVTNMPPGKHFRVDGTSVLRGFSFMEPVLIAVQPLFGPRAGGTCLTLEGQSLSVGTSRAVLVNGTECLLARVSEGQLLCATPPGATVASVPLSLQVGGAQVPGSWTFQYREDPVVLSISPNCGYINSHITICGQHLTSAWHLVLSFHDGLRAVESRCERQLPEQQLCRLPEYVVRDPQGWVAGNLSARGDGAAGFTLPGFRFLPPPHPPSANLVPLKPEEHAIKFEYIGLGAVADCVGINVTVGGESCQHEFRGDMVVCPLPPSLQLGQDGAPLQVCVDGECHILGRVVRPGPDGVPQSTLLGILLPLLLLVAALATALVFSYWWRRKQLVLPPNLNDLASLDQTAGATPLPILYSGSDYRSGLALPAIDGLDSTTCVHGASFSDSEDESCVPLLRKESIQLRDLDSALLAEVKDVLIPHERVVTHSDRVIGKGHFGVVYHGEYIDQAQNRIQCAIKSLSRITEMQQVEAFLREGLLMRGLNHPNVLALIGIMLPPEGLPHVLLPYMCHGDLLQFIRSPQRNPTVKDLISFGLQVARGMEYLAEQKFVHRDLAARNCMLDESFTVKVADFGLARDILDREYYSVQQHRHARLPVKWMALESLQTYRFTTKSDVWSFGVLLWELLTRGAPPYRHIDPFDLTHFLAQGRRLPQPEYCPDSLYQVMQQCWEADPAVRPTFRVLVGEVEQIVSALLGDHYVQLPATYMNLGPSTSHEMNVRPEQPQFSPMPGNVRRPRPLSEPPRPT
Test: radiometric filter-binding kinase assay, Kinase HotSpot
Settings: compound 0.5 µM; ATP 10 µM
metricName: residual activity (%)

[[record]]
itemsmiles = "c1ccc(-c2n[nH]cc2-c2ccnc3ccccc23)nc1"
systemtested = "UniProt Q04912"
metricname = "residual activity"
unittext = "%"
recordedmeasurement = 99.9

[[record]]
itemsmiles = "CC[n+]1c(/C=C/N(C)c2ccccc2)n(-c2ccccc2)c2ccc(-c3nc4ccccc4s3)cc21"
systemtested = "UniProt Q04912"
metricname = "residual activity"
unittext = "%"
recordedmeasurement = 94.4

[[record]]
itemsmiles = "Cc1[nH]c(/C=C2\\C(=O)Nc3ccc(S(=O)(=O)N(C)c4cccc(Cl)c4)cc32)c(C)c1C(=O)N1CCN(C)CC1"
systemtested = "UniProt Q04912"
metricname = "residual activity"
unittext = "%"
recordedmeasurement = 103

[[record]]
itemsmiles = "CNc1cc2c(Nc3cccc(Br)c3)ncnc2cn1"
systemtested = "UniProt Q04912"
metricname = "residual activity"
unittext = "%"
recordedmeasurement = 73.9

[[record]]
itemsmiles = "COc1cc2ncnc(Nc3cccc(Cl)c3)c2cc1OC"
systemtested = "UniProt Q04912"
metricname = "residual activity"
unittext = "%"
recordedmeasurement = 87.8

[[record]]
itemsmiles = "O=c1cc(N2CCOCC2)oc2c1ccc1ccccc12"
systemtested = "UniProt Q04912"
metricname = "residual activity"
unittext = "%"
recordedmeasurement = 103

[[record]]
itemsmiles = "c1ccc(-c2n[nH]c3c2oc2ccccc23)cc1"
systemtested = "UniProt Q04912"
metricname = "residual activity"
unittext = "%"
recordedmeasurement = 87.4

[[record]]
itemsmiles = "Nc1ccc2ncnc(NCCc3ccc(Oc4ccccc4)cc3)c2c1"
systemtested = "UniProt Q04912"
metricname = "residual activity"
unittext = "%"
recordedmeasurement = 97.2

[[record]]
itemsmiles = "COc1ccc2c(c[n+](C)c3c4cc5c(cc4ccc23)OCO5)c1OC"
systemtested = "UniProt Q04912"
metricname = "residual activity"
unittext = "%"
recordedmeasurement = 97.8

[[record]]
itemsmiles = "CC(C)N(CCC(=O)c1ccc2ccccc2c1)Cc1ccccc1"
systemtested = "UniProt Q04912"
metricname = "residual activity"
unittext = "%"
recordedmeasurement = 92.6

[[record]]
itemsmiles = "CCC(=O)Nc1ccc2ncnc(Nc3cccc(Br)c3)c2c1"
systemtested = "UniProt Q04912"
metricname = "residual activity"
unittext = "%"
recordedmeasurement = 97.2

[[record]]
itemsmiles = "Nc1ncnc2[nH]nc(Nc3ccc(F)cc3)c12"
systemtested = "UniProt Q04912"
metricname = "residual activity"
unittext = "%"
recordedmeasurement = 93.7

[[record]]
itemsmiles = "Oc1cccc(-c2nc(N3CCOCC3)c3oc4ncccc4c3n2)c1"
systemtested = "UniProt Q04912"
metricname = "residual activity"
unittext = "%"
recordedmeasurement = 94.3

[[record]]
itemsmiles = "N#C/C(=C(/N)Sc1ccc(N)cc1)c1ccccc1C(F)(F)F"
systemtested = "UniProt Q04912"
metricname = "residual activity"
unittext = "%"
recordedmeasurement = 90.4

[[record]]
itemsmiles = "O=C1Nc2ccc(Cl)cc2/C1=C/c1cc(Cl)c(O)c(Cl)c1"
systemtested = "UniProt Q04912"
metricname = "residual activity"
unittext = "%"
recordedmeasurement = 94.8

[[record]]
itemsmiles = "Cc1ccc(S(=O)(=O)/C=C/C#N)cc1"
systemtested = "UniProt Q04912"
metricname = "residual activity"
unittext = "%"
recordedmeasurement = 113

[[record]]
itemsmiles = "O=C1NC(=O)c2c1c1c3ccccc3n3c1c1c2c2ccccc2n1C1CCC3O1"
systemtested = "UniProt Q04912"
metricname = "residual activity"
unittext = "%"
recordedmeasurement = 87.7

[[record]]
itemsmiles = "O=C1NC(=O)/C(=C/c2ccc3c(c2)OC(F)(F)O3)S1"
systemtested = "UniProt Q04912"
metricname = "residual activity"
unittext = "%"
recordedmeasurement = 100

[[record]]
itemsmiles = "CNC(=O)c1cc(Oc2ccc(NC(=O)Nc3ccc(Cl)c(C(F)(F)F)c3)cc2)ccn1"
systemtested = "UniProt Q04912"
metricname = "residual activity"
unittext = "%"
recordedmeasurement = 97.6

[[record]]
itemsmiles = "CC#CC(=O)Nc1cc2c(Nc3ccc(F)c(Cl)c3)ncnc2cn1"
systemtested = "UniProt Q04912"
metricname = "residual activity"
unittext = "%"
recordedmeasurement = 104

[[record]]
itemsmiles = "O=C1NC(=O)C(c2cn(CCCn3ccnc3)c3ccccc23)=C1Nc1ccccc1"
systemtested = "UniProt Q04912"
metricname = "residual activity"
unittext = "%"
recordedmeasurement = 93.5

[[record]]
itemsmiles = "O=S(=O)(c1cccc2cnccc12)N1CCCNCC1"
systemtested = "UniProt Q04912"
metricname = "residual activity"
unittext = "%"
recordedmeasurement = 92.7

[[record]]
itemsmiles = "CCN(CC)CCNC(=O)c1c(C)[nH]c(/C=C2\\C(=O)Nc3ccc(F)cc32)c1C"
systemtested = "UniProt Q04912"
metricname = "residual activity"
unittext = "%"
recordedmeasurement = 92

[[record]]
itemsmiles = "Nc1ncnc2c1c(-c1ccc(Oc3ccccc3)cc1)cn2C1CCCC1"
systemtested = "UniProt Q04912"
metricname = "residual activity"
unittext = "%"
recordedmeasurement = 94

[[record]]
itemsmiles = "CCOC(=O)c1c(C)[nH]c(/C=C2\\C(=O)Nc3ccccc32)c1C"
systemtested = "UniProt Q04912"
metricname = "residual activity"
unittext = "%"
recordedmeasurement = 87.5

[[record]]
itemsmiles = "CCN(CC)C(=O)c1ccc(Nc2nc(OCC3CCCCC3)c3nc[nH]c3n2)cc1"
systemtested = "UniProt Q04912"
metricname = "residual activity"
unittext = "%"
recordedmeasurement = 103

[[record]]
itemsmiles = "O=C(Nc1cccc(Nc2nccc(Nc3cccc(C(F)(F)F)c3)n2)c1)C1CC1"
systemtested = "UniProt Q04912"
metricname = "residual activity"
unittext = "%"
recordedmeasurement = 92.6

